System: T1, recombinant human PD-L2-Fc-biotin (human, UniProt Q9BQ51 20-220, biotin)
T1 chain: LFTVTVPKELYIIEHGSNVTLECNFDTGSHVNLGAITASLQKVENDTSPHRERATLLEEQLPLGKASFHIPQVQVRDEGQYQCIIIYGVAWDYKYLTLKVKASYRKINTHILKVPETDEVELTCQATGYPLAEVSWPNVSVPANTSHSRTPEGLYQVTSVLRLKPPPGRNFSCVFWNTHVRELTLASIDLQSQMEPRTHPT
Assay method text: blocking of hPD-L2 binding to HEK293-hPD-1 cells
Metric name: pIC50
Give bare numbers, as −log10 of the molar value.

1. 9A3-C7 (antibody, V domains shown, Both formats under this entry) VH: QVQLVESGGGLVKPGGSLRLSCAASGFSLSDYYMSWIRQAPGRGLEWVSYISSSGSTIYYVDSVKGRFTISRDNAKNSLYLQINSLRAEDTAVYHCARAQWLPDFDYWGQGTLVTVSS VL: QSALTQPPSASGSPGQSVTISCTGTSSDVGGYNYVSWYQHHPGKVPKLMIYEVSKRPSGVPDRFSGSKSGNTASLTVSGLQAEDEADYYCTSFADNNNVGFGGGTKLTVLG    10.54

Batch of 2 binders: report pIC50 for each.
1. 12A1-D4 (antibody, V domains shown, Both formats under this entry) VH: QVQLQESGPGLVKPSGTLSLTCAVSGGSISSNNWWSWVRQPPGKGLEWIGEIFHVGSTNYNPSLKSRVTISVDKSKNQFSLKLSSLTAADTAVYYCARMVGATGHYYGMDVWGQGTTVTVSS VL: DIQLTQSPSFLSASVGDRVTITCRASQGISSSLAWYQQKPGKAPKFLIYAASTLQSGVPSRFSGSGSGTEFTLTISSLQPEDFATYYCQQLNSYPKSWTFGQGTKVEIK
2. 1A1-C2 (antibody, V domains shown) VH: QVQLQESGPGLVKPSGTLSLTCAVSGGSIGSSYWWTWIRQSPGKGLEWIGEIFHSGPTNYTPSLKSRVTISVDKSKNQFSLQLRSVTAADTAVYYCARTTGTTGFYYGMDVWGQGTTVTVSS VL: EVVLTQSPATLYVTPGERVTLSCRASQSVSSNLAWYQQKPGQAPRLLIYGASTRATGIPARFSGSGSGTEFTLTISSLQSEDFAVYYCQQFNNWPRTFGLGTKVEIT

Result:
[10.89, 10.52]
